# Assay protocol: GFP drop in mixed WT/humanized-ribosome E. coli culture – GFP/RFP fluorescence, OD600, single point, bacterial rRNA inhibitor project, primary screen (AID 720706)
# Reported conditions: E. coli WT GFP vs humanized-ribosome RFP mutants, 24 h; measured here: OD600 growth, DMSO median 0, no signal -100
The campaign covered roughly 350,000 compounds. About 5,500 (1.6%) were called active. The entries come from a sample that favours actives as a whole.
Listed here are molecules together with their documented OD600 change.

- Molecule: "COc1ccc2oc(C(=O)NCc3ccco3)c(C)c2c1"
  Quantity unit: "%"
  OD600 change: -11.6
- Molecule: "COc1ccc2oc(C(=O)NCC(Cc3ccccc3)N(C)C)c(C)c2c1 (stereo unspecified)"
  Quantity unit: "%"
  OD600 change: -7.21
- Molecule: "Cc1ccc(C(=O)NN(CCC#N)C2=NS(=O)(=O)c3ccccc32)cc1"
  Quantity unit: "%"
  OD600 change: 11
- Molecule: "COc1cccc(NC(=O)CN(C)C(=O)c2cc(C3CC3)nn2-c2ccccc2)c1"
  Quantity unit: "%"
  OD600 change: -27.8
- Molecule: "CCC(=O)N(C)C[C@@H]1Oc2cc(C#CCOC)ccc2S(=O)(=O)N([C@@H](C)CO)C[C@@H]1C"
  Quantity unit: "%"
  OD600 change: 5.66
- Molecule: "O=C(NCc1nnc(SCC(=O)N2CCC(Cc3ccccc3)CC2)o1)c1ccco1"
  Quantity unit: "%"
  OD600 change: -18.5
- Molecule: "S=C(NCC1CCCO1)N1CCN(c2ccc(Cl)c(Cl)c2)CC1 (stereo unspecified)"
  Quantity unit: "%"
  OD600 change: -79.1
- Molecule: "CCc1ccccc1NC(=O)CN(C)C(=O)c1cc(C2CC2)nn1-c1ccccc1"
  Quantity unit: "%"
  OD600 change: -16.5
- Molecule: "Cc1c(C(=O)NCC(c2ccco2)N2CCCC2)oc2ccc(Cl)cc12 (stereo unspecified)"
  Quantity unit: "%"
  OD600 change: -24.2
- Molecule: "O=C(C[n+]1cc(-c2ccc(Cl)c(Cl)c2)n2c1CCC2)c1cccs1"
  Quantity unit: "%"
  OD600 change: -21.5
- Molecule: "Cc1ccc(C(=O)C[n+]2cc(-c3ccccc3)n3c2CCCCC3)cc1"
  Quantity unit: "%"
  OD600 change: -43.4
- Molecule: "CCC(=O)N1[C@@H](CO)[C@@H](c2ccccc2)C12CN(C(=O)c1cnccn1)C2"
  Quantity unit: "%"
  OD600 change: -9.38
- Molecule: "CCNC(=O)[C@H]1[C@H](CO)[C@H]2Cn3c(ccc(C4=CCCC4)c3=O)[C@@H]1N2S(=O)(=O)c1cn(C)cn1"
  Quantity unit: "%"
  OD600 change: 2.51
- Molecule: "Clc1ccc(Nc2ccc3ccccc3n2)cc1"
  Quantity unit: "%"
  OD600 change: -30
- Molecule: "CCCN1C[C@H](C)[C@H](OC)CN(C)C(=O)c2cc(NC(=O)NC3CCCC3)ccc2OC[C@H]1C"
  Quantity unit: "%"
  OD600 change: 8.41
- Molecule: "O=C(O)c1ccccc1-c1ccccc1C(=O)NCCc1ccccc1"
  Quantity unit: "%"
  OD600 change: 2.74
- Molecule: "O=C(NCCCc1ccccc1)C(=O)c1c[nH]c2ccccc12"
  Quantity unit: "%"
  OD600 change: -1.22
- Molecule: "O=C(NCc1nnc(SCC(=O)N2CCCCCC2)o1)c1ccc(F)cc1"
  Quantity unit: "%"
  OD600 change: 9.68
- Molecule: "CC1CCN(C(=S)NC(=O)c2ccccc2Br)CC1"
  Quantity unit: "%"
  OD600 change: 4.62
- Molecule: "COc1ccc(CCNC(=O)c2cc3sccc3n2C)cc1OC"
  Quantity unit: "%"
  OD600 change: -13
- Molecule: "COc1ccc(/C=N/N(C)C2=NS(=O)(=O)c3ccccc32)cc1OC"
  Quantity unit: "%"
  OD600 change: 9.54

Data provenance is PubChem BioAssay AID720706.
